B1: RIPK4 (parent)
chain: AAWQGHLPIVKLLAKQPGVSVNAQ

# Variants of: B1
# RUN DESCRIPTION: protein stability index of a GFP-peptide fusion (GPS, HEK-293T) (PSI 1-6); higher = more stable;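 further: lentivirally expressed fusions sorted by FACS into six bins by GFP to DsRed ratio, PSI derived from sequencing read proportions per bin multiplied by bin number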
# RECORDED CONDITIONS: c terminus: a fixed tail appended
Label Satisfied for high-side protein stability index (at or above 2) and Not satisfied for low-side protein stability index (below it).

SEQ: AAWAGHLPIVKLLAKQPGVSVNAQ [Q4A]
CLASSIFICATION: Not satisfied
//
SEQ: AAWQGHLPIVKLLASQPGVSVNAQ [K15S]
CLASSIFICATION: Satisfied
//
SEQ: AAWQPHLPIVKLLAKQPGVSVNAQ [G5P]
CLASSIFICATION: Satisfied
//
SEQ: AAWQGHLPIVKLLFKQPGVSVNAQ [A14F]
CLASSIFICATION: Not satisfied
//
SEQ: AAWQRHLPIVKLLAKQPGVSVNAQ [G5R]
CLASSIFICATION: Satisfied
//
SEQ: AEWQGHLPIVKLLAKQPGVSVNAQ [A2E]
CLASSIFICATION: Satisfied
//
SEQ: AAWQGHLPILKLLAKQPGVSVNAQ [V10L]
CLASSIFICATION: Not satisfied
//
SEQ: AAWQGHSPIVKLLAKQPGVSVNAQ [L7S]
CLASSIFICATION: Satisfied
//
SEQ: AAWQGHLPIVKLLAKQPGVSANAQ [V21A]
CLASSIFICATION: Satisfied
//
SEQ: AAWQGHLPIVKLLAKNPGVSVNAQ [Q16N]
CLASSIFICATION: Satisfied
//
SEQ: AAWQGHLPIVKLLAKQPGVSCNAQ [V21C]
CLASSIFICATION: Not satisfied
//
SEQ: ASWQGHLPIVKLLAKQPGVSVNAQ [A2S]
CLASSIFICATION: Satisfied
//
SEQ: AAWQGHLPHVKLLAKQPGVSVNAQ [I9H]
CLASSIFICATION: Satisfied
//
SEQ: AAWQGHLPIVKLLAQQPGVSVNAQ [K15Q]
CLASSIFICATION: Not satisfied
//
SEQ: AAWQGHLPIVKLLAKQPGGSVNAQ [V19G]
CLASSIFICATION: Not satisfied
//
SEQ: AAWQGHLPIVKPLAKQPGVSVNAQ [L12P]
CLASSIFICATION: Satisfied
//
SEQ: AAWQGHLPIVKLLAKQPGMSVNAQ [V19M]
CLASSIFICATION: Satisfied
//
SEQ: AAWQGELPIVKLLAKQPGVSVNAQ [H6E]
CLASSIFICATION: Satisfied
//
SEQ: AAWQGHLPIVKLLAKQPPVSVNAQ [G18P]
CLASSIFICATION: Satisfied
//
SEQ: AAWQGHFPIVKLLAKQPGVSVNAQ [L7F]
CLASSIFICATION: Satisfied
//
SEQ: AAWQGHLPIVCLLAKQPGVSVNAQ [K11C]
CLASSIFICATION: Satisfied
//
SEQ: AAWQGHLPIVKLLAKQPGVSVNKQ [A23K]
CLASSIFICATION: Satisfied
//
SEQ: AAWQGHLPIVKLNAKQPGVSVNAQ [L13N]
CLASSIFICATION: Satisfied
//
SEQ: AAWQGHLPIVKLLSKQPGVSVNAQ [A14S]
CLASSIFICATION: Satisfied
//
SEQ: AAWQGHVPIVKLLAKQPGVSVNAQ [L7V]
CLASSIFICATION: Satisfied
//
SEQ: AAWQGHLPIVKLLANQPGVSVNAQ [K15N]
CLASSIFICATION: Satisfied
//
SEQ: AAWQGHLPIVKLLAKQPGHSVNAQ [V19H]
CLASSIFICATION: Satisfied
//
SEQ: AAWQGQLPIVKLLAKQPGVSVNAQ [H6Q]
CLASSIFICATION: Satisfied
